Target: UniProt:P29466
Sequence (P29466 whole entry): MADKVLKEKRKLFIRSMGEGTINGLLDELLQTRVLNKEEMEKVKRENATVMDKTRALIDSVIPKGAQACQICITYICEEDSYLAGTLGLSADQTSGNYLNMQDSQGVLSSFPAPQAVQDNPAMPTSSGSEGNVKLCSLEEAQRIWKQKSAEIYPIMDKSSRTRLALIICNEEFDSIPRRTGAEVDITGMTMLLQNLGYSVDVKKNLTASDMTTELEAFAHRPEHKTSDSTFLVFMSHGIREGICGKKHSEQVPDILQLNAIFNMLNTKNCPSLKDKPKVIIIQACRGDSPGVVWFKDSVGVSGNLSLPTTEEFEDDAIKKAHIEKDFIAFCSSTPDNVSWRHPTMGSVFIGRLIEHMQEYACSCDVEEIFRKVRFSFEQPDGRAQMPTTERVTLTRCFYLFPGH
endpoint.label: log10 of Ki (log10 of the value in µM)
Kindly note that the scale is log10 and the underlying Ki is in µM.

>>> recorded_result("CCC(C)c1ccc(Oc2ccccc2S(=O)(=O)N[C@H](C=O)C(=O)O)cc1C (stereo not given in full)")
-1.00
>>> recorded_result("O=C[C@@H](NS(=O)(=O)c1ccccc1-c1ccccc1)C(=O)O")
0.20

What does the data say about its log10 of Ki? Entry: CC(C)c1cccc(Oc2ccccc2S(=O)(=O)N[C@H](C=O)C(=O)O)c1
-0.39

Try the molecule Cc1cccc(Oc2ccccc2S(=O)(=O)N[C@H](C=O)C(=O)O)c1
-0.37

Try the molecule Cc1cc(Oc2ccccc2S(=O)(=O)N[C@H](C=O)C(=O)O)cc(C)c1C
-0.35

* * *

Target: Caspase-1 (Homo sapiens, UniProt P29466)
endpoint.label: log10 of IC50 (log10 of the value in µM)
Kindly note that the scale is log10 and the underlying IC50 is in µM.

Known log10 of IC50 results, listed for orientation:
>>> recorded_result("CCC(C)c1ccc(Oc2ccccc2S(=O)(=O)N[C@H](C=O)C(=O)O)cc1C (some centres not stated)")
0.00
>>> recorded_result("Cc1cc(Oc2ccccc2S(=O)(=O)N[C@H](C=O)C(=O)O)cc(C)c1C")
0.89
>>> recorded_result("O=C[C@@H](NS(=O)(=O)c1ccccc1Oc1ccc(C2CCCCC2)cc1)C(=O)O")
0.63
>>> recorded_result("CC(C)c1cccc(Oc2ccccc2S(=O)(=O)N[C@H](C=O)C(=O)O)c1")
0.57

What does the data say about its log10 of IC50? Entry: CC(C)c1ccc(Oc2ccccc2S(=O)(=O)N[C@H](C=O)C(=O)O)cc1
0.72

Try the compound Cc1cccc(Oc2ccccc2S(=O)(=O)N[C@H](C=O)C(=O)O)c1
1.04

Try the compound O=C[C@@H](NS(=O)(=O)c1ccccc1-c1ccccc1)C(=O)O
1.30
